Kindly supply the reported PBM E-score values for the records listed here.
Biological target: Cad1 (UniProt P24813)
Sequence: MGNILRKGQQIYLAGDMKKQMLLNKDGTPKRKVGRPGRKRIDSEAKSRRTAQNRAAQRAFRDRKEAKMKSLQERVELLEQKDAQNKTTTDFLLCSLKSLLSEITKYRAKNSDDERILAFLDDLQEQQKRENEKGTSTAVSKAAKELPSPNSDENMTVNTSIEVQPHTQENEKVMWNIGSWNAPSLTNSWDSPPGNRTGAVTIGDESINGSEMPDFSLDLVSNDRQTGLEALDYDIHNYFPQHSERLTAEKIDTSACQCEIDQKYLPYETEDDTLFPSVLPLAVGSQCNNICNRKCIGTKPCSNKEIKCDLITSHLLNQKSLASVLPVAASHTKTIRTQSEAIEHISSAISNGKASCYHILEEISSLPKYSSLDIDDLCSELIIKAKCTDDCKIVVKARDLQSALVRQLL
Assay: PBM E-score (8-mer binding enrichment) (E-score (-0.5 to 0.5)); higher = stronger / more preferred TF binding
Settings: protein concentration: 100 nM; construct: GST-full length
The full ranking holds about 33,000 sequences; the median of “E-score (-0.5 to 0.5)” is about -0.0014, and the highest 2% start at about 0.25. Only a selection was taken, and the highest values are over-represented in it overall.
API doc: respond with a numeric literal and nothing else, no unit.

Q. Recall and state the measured PBM E-score for "CATACTGA" .
A. 0.103

Q. Recall and state the measured PBM E-score for "CACCGATG" .
A. -0.179

Q. Recall and state the measured PBM E-score for "CATAATGA" .
A. 0.0454

Q. Recall and state the measured PBM E-score for "AATAAGCA" .
A. 0.343

Q. Recall and state the measured PBM E-score for "GATACTGA" .
A. 0.14

Q. Recall and state the measured PBM E-score for "AGTGTGGG" .
A. -0.0209

Q. Recall and state the measured PBM E-score for "ATAGACCG" .
A. -0.0498

Q. Recall and state the measured PBM E-score for "GTACATAA" .
A. 0.0232

Q. Recall and state the measured PBM E-score for "AGTAAGCA" .
A. 0.241

Q. Recall and state the measured PBM E-score for "AGACCACA" .
A. -0.0838

Q. Recall and state the measured PBM E-score for "CACTAGAA" .
A. -0.0573

Q. Recall and state the measured PBM E-score for "CCCTCCCG" .
A. -0.226

Q. Recall and state the measured PBM E-score for "AATAATTG" .
A. 0.0365

Q. Recall and state the measured PBM E-score for "AATAATTC" .
A. 0.18

Q. Recall and state the measured PBM E-score for "GATAATGA" .
A. 0.167

Q. Recall and state the measured PBM E-score for "GATAATAA" .
A. 0.0805

Q. Recall and state the measured PBM E-score for "TATACTGA" .
A. 0.288

Q. Recall and state the measured PBM E-score for "GCTACTAA" .
A. 0.0213

Q. Recall and state the measured PBM E-score for "AATAATTA" .
A. 0.336

Q. Recall and state the measured PBM E-score for "CATAATTA" .
A. 0.279

Q. Recall and state the measured PBM E-score for "CGTAAGCA" .
A. 0.232

Q. Recall and state the measured PBM E-score for "GTTACTAA" .
A. 0.374

Q. Recall and state the measured PBM E-score for "GGTAAGCA" .
A. 0.257

Q. Recall and state the measured PBM E-score for "CCGGTCTC" .
A. -0.161

Q. Recall and state the measured PBM E-score for "CGCGTTAC" .
A. 0.139

Q. Recall and state the measured PBM E-score for "CATAATTC" .
A. 0.0611

Q. Recall and state the measured PBM E-score for "ATTGCTAA" .
A. 0.256

Q. Recall and state the measured PBM E-score for "GTTTGTTA" .
A. 0.202

Q. Recall and state the measured PBM E-score for "GATTGTCA" .
A. 0.117

Q. Recall and state the measured PBM E-score for "TGTTGGAA" .
A. 0.192

Q. Recall and state the measured PBM E-score for "CACGAGCC" .
A. -0.209

Q. Recall and state the measured PBM E-score for "GCGCTTAC" .
A. 0.299

Q. Recall and state the measured PBM E-score for "CTAGCTAG" .
A. 0.279

Q. Recall and state the measured PBM E-score for "CTTGCTAA" .
A. -0.13

Q. Recall and state the measured PBM E-score for "ATAGCTAG" .
A. -0.106

Q. Recall and state the measured PBM E-score for "GGACATAA" .
A. 0.102
